experiment: in vitro; details: human, Caco-2, pH 7.4
result_type: Papp A→B at 2 h, 5 μM (×10⁻⁶ cm/s)

item_smiles=CC[C@@H]1NC(=O)[C@H]([C@H](O)[C@H](C)Cc2nc3ccc(C(=O)O)cc3n2C)N(C)C(=O)[C@H](C(C)C)N(C)C(=O)[C@H](CC(C)C)N(C)C(=O)[C@H](CC(C)C)N(C)C(=O)[C@@H](C)NC(=O)[C@H](C)NC(=O)[C@H](CC(C)C)N(C)C(=O)[C@H](C(C)C)NC(=O)[C@H](CC(C)C)N(C)C(=O)CN(C)C1=O scale_unit="×10⁻⁶ cm/s" numeric_readout=0.1
item_smiles=CC[C@@H]1NC(=O)[C@H]([C@H](O)[C@H](C)Cc2nc3cc(C(N)=O)ccc3[nH]2)N(C)C(=O)[C@H](C(C)C)N(C)C(=O)[C@H](CC(C)C)N(C)C(=O)[C@H](CC(C)C)N(C)C(=O)[C@@H](C)NC(=O)[C@H](C)NC(=O)[C@H](CC(C)C)N(C)C(=O)[C@H](C(C)C)NC(=O)[C@H](CC(C)C)N(C)C(=O)CN(C)C1=O scale_unit="×10⁻⁶ cm/s" numeric_readout=0.3
item_smiles=CC[C@@H]1NC(=O)[C@H]([C@H](O)[C@H](C)Cc2nc3ccc(C(=O)O)cc3[nH]2)N(C)C(=O)[C@H](C(C)C)N(C)C(=O)[C@H](CC(C)C)N(C)C(=O)[C@H](CC(C)C)N(C)C(=O)[C@@H](C)NC(=O)[C@H](C)NC(=O)[C@H](CC(C)C)N(C)C(=O)[C@H](C(C)C)NC(=O)[C@H](CC(C)C)N(C)C(=O)CN(C)C1=O scale_unit="×10⁻⁶ cm/s" numeric_readout=0.17
